- SYSTEM UNDER TEST: human TLR9 (Homo sapiens (Human), UniProt Q9NR96)
- Sequence (Q9NR96 26-1032): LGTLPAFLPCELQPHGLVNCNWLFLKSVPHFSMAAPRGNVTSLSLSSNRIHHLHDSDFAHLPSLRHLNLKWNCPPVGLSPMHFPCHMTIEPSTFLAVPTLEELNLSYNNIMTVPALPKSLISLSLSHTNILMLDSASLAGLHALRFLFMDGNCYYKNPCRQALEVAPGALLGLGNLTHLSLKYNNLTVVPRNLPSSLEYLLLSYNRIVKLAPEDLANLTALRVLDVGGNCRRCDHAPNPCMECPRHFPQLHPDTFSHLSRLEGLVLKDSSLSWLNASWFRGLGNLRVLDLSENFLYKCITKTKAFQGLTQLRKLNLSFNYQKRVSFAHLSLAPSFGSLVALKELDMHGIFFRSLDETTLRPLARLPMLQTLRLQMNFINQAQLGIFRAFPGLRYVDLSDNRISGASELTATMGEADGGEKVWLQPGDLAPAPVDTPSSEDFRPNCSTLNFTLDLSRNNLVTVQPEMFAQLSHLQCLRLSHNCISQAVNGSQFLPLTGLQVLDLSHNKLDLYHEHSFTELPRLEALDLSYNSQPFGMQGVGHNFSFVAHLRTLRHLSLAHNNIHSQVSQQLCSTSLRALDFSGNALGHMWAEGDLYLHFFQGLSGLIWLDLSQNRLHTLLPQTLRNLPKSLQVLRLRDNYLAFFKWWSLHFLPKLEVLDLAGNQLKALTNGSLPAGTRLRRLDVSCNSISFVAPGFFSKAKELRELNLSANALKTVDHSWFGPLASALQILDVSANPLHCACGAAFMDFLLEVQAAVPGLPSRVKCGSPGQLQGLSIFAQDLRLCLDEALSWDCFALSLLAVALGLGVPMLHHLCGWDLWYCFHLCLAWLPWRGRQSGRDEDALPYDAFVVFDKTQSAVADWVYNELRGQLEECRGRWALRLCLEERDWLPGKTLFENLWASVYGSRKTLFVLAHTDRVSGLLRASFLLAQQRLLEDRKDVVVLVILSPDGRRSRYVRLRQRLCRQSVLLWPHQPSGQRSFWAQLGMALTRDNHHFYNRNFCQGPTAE
- ASSAY EXPLANATION: TLR9 inhibition reporter assay (HEK-Blue cells, SEAP reporter, ODN2006 stimulation)
- CONDITION: read-out: TLR9 IC50; HEK-Blue cells overexpressing human TLR9, SEAP reporter, ODN2006 5 nM
Measured IC50 accompanies every entry in the list below.
READOUT LABEL: IC50 (µM)

- Cc1c(-c2[nH]c3ccc(N4C[C@@H]5C[C@H]4CN5C4COC4)nc3c2C(C)C)cn2ncnc2c1C [Example 779]: 34.5
- Cc1c(-c2[nH]c3ccc(N4C[C@H]5C[C@@H]4CN5C4COC4)nc3c2C(C)C)cn2ncnc2c1C [Example 768]: 21
- Cc1c(-c2[nH]c3ccc(N4C[C@@H]5C[C@H]4CN5C(=O)CN(C)C)nc3c2C(C)C)cn2ncnc2c1C [Example 784]: 4.53
- Cc1c(-c2[nH]c3ccc(N4C[C@@H]5C[C@H]4CN5C(C)C)nc3c2C(C)C)cn2ncnc2c1C [Example 783]: 8.38
- Cc1c(-c2[nH]c3ccc(N4C[C@@H]5C[C@H]4CN5CCC(=O)N(C)C)nc3c2C(C)C)cn2ncnc2c1C [Example 776]: 13.1
- CC(C)c1c(-c2cn(CC#N)c3ncccc23)[nH]c2ccc(C3CCC(NC4CCOCC4)CC3)nc12 (stereo not shown) [Example 274]: 0.474
- Cc1c(-c2[nH]c3ccc(N4C[C@H]5C[C@@H]4CN5CC#N)nc3c2C(C)C)cn2ncnc2c1C [Example 766]: 3.51

---

- SYSTEM UNDER TEST: human TLR7 (Homo sapiens (Human))
- Sequence (Q9NYK1 27-1049): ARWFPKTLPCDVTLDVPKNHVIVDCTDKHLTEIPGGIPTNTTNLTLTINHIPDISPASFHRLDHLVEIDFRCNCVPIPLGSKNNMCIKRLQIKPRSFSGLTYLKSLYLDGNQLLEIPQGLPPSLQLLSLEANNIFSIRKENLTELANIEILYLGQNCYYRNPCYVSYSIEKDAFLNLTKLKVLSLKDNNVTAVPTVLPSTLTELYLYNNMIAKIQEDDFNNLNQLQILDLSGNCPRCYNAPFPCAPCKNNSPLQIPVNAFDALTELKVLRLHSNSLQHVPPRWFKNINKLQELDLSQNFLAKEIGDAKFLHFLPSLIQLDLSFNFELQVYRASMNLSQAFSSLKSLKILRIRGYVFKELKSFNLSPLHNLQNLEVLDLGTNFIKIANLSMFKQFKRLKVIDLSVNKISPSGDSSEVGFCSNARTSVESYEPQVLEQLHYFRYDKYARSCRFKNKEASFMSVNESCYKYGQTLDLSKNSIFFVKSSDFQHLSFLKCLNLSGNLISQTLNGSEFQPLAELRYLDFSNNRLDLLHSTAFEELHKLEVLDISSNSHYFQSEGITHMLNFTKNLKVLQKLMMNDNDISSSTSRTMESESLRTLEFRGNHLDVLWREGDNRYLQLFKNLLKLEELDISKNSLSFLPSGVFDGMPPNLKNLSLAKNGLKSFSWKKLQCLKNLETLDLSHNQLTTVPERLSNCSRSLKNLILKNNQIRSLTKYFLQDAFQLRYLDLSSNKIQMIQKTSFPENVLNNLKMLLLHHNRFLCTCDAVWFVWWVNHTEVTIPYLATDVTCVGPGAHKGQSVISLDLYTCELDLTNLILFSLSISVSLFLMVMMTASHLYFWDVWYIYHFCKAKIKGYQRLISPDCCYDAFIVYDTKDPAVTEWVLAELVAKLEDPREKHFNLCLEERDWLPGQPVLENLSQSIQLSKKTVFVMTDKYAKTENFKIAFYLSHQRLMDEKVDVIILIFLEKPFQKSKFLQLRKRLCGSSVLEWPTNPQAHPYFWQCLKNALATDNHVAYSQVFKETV
- ASSAY EXPLANATION: TLR7 inhibition reporter assay (HEK-Blue cells, SEAP reporter, gardiquimod stimulation)
- Assay type: cell-based
- CONDITION: HEK-Blue cells, gardiquimod 7.5 μM
Measured IC50 accompanies every entry in the list below.
READOUT LABEL: IC50

• Cc1c(-c2[nH]c3ccc(C4CC5(C4)CN(C(C)C)C5)nc3c2C(C)C)cn2ncnc2c1C = 10 nM
• Cc1c(-c2[nH]c3ccc(N4CCN(C(=O)CN(C)C)[C@H](C)C4)nc3c2C(C)C)cn2ncnc2c1C = 0.53 nM
• Cc1c(-c2[nH]c3ccc(N4C[C@@H](C)N(CCCS(C)(=O)=O)C[C@@H]4C)nc3c2C(C)C)cn2ncnc2c1C = 0.55 nM
• Cc1c(-c2[nH]c3ccc(C4CC5(C4)CN(C)C5)nc3c2C(C)C)cn2ncnc2c1C = 0.91 nM

---

- SYSTEM UNDER TEST: human TLR9 (Homo sapiens (Human))
- ASSAY EXPLANATION: TLR9 inhibition reporter assay (HEK-Blue cells, SEAP reporter, ODN2006 stimulation)
READOUT LABEL: IC50 (µM)

- CCCN(CCC)C1CCC(Oc2ccc3[nH]c(-c4cc(OC)c5ncnn5c4)c(C(C)C)c3n2)CC1 (stereo not shown): 4.24

---

- SYSTEM UNDER TEST: human TLR9 (Homo sapiens (Human), UniProt Q9NR96)
- ASSAY EXPLANATION: TLR9 inhibition reporter assay (HEK-Blue cells, SEAP reporter, ODN2006 stimulation);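 further: SEAP driven by IFN-β minimal promoter with five NF-κB and AP-1 sites, compounds 0.05 nM–50 µM in DMSO, 22 h, inhibition scaled between agonist plus DMSO and reference inhibitor wells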
- CONDITION: read-out: TLR9 IC50; HEK-Blue cells overexpressing human TLR9, SEAP reporter, ODN2006 5 nM
READOUT LABEL: IC50

* Cc1c(-c2[nH]c3ccc(N4C[C@H]5C[C@@H]4CN5CCC(N)=O)nc3c2C(C)C)cn2ncnc2c1C | 4.58 µM
* Cc1c(-c2[nH]c3ccc(N4C[C@H]5CCC[C@@H](C4)N5CCS(C)(=O)=O)nc3c2C(C)C)cn2ncnc2c1C | 26 µM
* Cc1c(-c2[nH]c3ccc(N4C[C@@H]5C[C@H]4CN5C4CCS(=O)(=O)CC4)nc3c2C(C)C)cn2ncnc2c1C | 14.4 µM
* Cc1c(-c2[nH]c3ccc(N4C[C@@H]5C[C@H]4CN5CC(N)=O)nc3c2C(C)C)cn2ncnc2c1C | 18.6 µM
* Cc1c(-c2[nH]c3ccc(N4C[C@H]5C[C@@H]4CN5CCCS(C)(=O)=O)nc3c2C(C)C)cn2ncnc2c1C | 10.3 µM
* Cc1c(-c2[nH]c3ccc(N4C[C@H]5C[C@@H]4CN5CCC(=O)N(C)C)nc3c2C(C)C)cn2ncnc2c1C | 8.3 µM
* Cc1cc(-c2[nH]c3ccc(C4CCN(CC(N)=O)CC4)nc3c2C(C)C)cn2ncnc12 | 4.92 µM
* Cc1c(-c2[nH]c3ccc(N4C[C@H]5C[C@@H]4CN5C4CCS(=O)(=O)CC4)nc3c2C(C)C)cn2ncnc2c1C | 18.2 µM
* Cc1c(-c2[nH]c3ccc(N4C[C@H]5C[C@@H]4CN5CCS(C)(=O)=O)nc3c2C(C)C)cn2ncnc2c1C | 14.4 µM
* Cc1c(-c2[nH]c3ccc(N4C[C@H]5CCC[C@@H](C4)N5C(=O)CN(C)C)nc3c2C(C)C)cn2ncnc2c1C | 6.15 µM
* Cc1c(-c2[nH]c3ccc(N4C[C@H]5C[C@@H]4CN5CC(N)=O)nc3c2C(C)C)cn2ncnc2c1C | 18.3 µM
* Cc1c(-c2[nH]c3ccc(N4C[C@H]5C[C@@H]4CN5C(=O)CCN(C)C)nc3c2C(C)C)cn2ncnc2c1C | 2.71 µM
* Cc1c(-c2[nH]c3ccc(N4C[C@H]5C[C@@H]4CN5C(C)C)nc3c2C(C)C)cn2ncnc2c1C | 14.7 µM
* Cc1c(-c2[nH]c3ccc(N4CCC(N(C)Cc5ncccn5)CC4)nc3c2C(C)C)cn2cnnc2c1C | 3.17 µM

---

- SYSTEM UNDER TEST: human TLR7 (Homo sapiens (Human))
- ASSAY EXPLANATION: TLR7 inhibition reporter assay (HEK-Blue cells, SEAP reporter, gardiquimod stimulation)
- Type: cell-based
- CONDITION: HEK-Blue cells overexpressing human TLR7, SEAP reporter, gardiquimod 7.5 μM
READOUT LABEL: IC50 (nM)

- CCCN(CCC)C1CCC(Oc2ccc3[nH]c(-c4cc(OC)c5ncnn5c4)c(C(C)C)c3n2)CC1 (stereo not shown): 13
- Cc1c(-c2[nH]c3ccc(N4C[C@H]5C[C@@H]4CN5C4CCS(=O)(=O)CC4)nc3c2C(C)C)cn2ncnc2c1C: 11
- Cc1c(-c2[nH]c3ccc(N4C[C@H]5C[C@@H]4CN5C(=O)CCN(C)C)nc3c2C(C)C)cn2ncnc2c1C: 3
- Cc1c(-c2[nH]c3ccc(N4C[C@H]5C[C@@H]4CN5CCS(C)(=O)=O)nc3c2C(C)C)cn2ncnc2c1C: 1.9
- Cc1c(-c2[nH]c3ccc(N4C[C@H]5CCC[C@@H](C4)N5C(=O)CN(C)C)nc3c2C(C)C)cn2ncnc2c1C: 1.2
- CCN(CCS(C)(=O)=O)C1CCC(c2ccc3[nH]c(-c4cn5ncnc5c(C)c4C)c(C(C)C)c3n2)CC1 (stereo not shown): 0.88
- Cc1c(-c2[nH]c3ccc(N4CCC(N(C)Cc5ncccn5)CC4)nc3c2C(C)C)cn2cnnc2c1C: 3.7

---

- SYSTEM UNDER TEST: human TLR8 (Homo sapiens (Human))
- Sequence (Q9NR97 27-1041): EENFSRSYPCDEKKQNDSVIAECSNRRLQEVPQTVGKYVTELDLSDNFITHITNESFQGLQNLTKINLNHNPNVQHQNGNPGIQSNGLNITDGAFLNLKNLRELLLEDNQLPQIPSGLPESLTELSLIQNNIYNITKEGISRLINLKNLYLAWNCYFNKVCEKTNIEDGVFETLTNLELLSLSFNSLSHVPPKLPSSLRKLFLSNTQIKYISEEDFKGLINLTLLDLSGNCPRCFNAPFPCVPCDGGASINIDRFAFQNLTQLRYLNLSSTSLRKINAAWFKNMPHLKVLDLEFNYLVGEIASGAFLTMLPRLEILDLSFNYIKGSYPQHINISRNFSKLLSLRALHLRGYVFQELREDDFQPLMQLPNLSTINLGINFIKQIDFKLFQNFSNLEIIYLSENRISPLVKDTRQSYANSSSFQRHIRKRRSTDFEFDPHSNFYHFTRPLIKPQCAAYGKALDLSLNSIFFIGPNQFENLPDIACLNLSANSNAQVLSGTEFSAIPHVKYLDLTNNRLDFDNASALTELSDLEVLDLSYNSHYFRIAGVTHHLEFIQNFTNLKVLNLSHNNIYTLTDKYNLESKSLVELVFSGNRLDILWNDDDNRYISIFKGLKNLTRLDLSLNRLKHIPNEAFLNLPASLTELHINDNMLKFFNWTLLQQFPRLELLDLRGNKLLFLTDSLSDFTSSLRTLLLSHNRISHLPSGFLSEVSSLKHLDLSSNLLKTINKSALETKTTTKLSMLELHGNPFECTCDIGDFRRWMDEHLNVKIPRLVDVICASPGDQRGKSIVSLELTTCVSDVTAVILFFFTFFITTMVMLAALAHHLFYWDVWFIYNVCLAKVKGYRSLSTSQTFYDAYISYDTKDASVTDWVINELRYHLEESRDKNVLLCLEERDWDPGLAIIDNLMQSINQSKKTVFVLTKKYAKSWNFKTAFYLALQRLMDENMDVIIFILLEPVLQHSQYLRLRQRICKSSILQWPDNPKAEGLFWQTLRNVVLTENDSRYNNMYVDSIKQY
- ASSAY EXPLANATION: TLR8 inhibition reporter assay (HEK-Blue cells, SEAP reporter, R848 stimulation);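 further: SEAP under an IFN-β minimal promoter carrying five NF-κB and AP-1 sites, 22 h at 37 °C, doses 0.05 nM–50 µM, inhibition scaled between agonist-plus-DMSO and reference-inhibitor wells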
- CONDITION: read-out: TLR8 IC50; HEK-Blue cells overexpressing human TLR8, SEAP reporter, R848 15.9 μM
Class (required): determined from IC50; valid ranges are interval 1 (below 4 nM), interval 2 (4 nM to below 9 nM), interval 3 (9 nM or more)

- CCN(CCS(C)(=O)=O)C1CCC(c2ccc3[nH]c(-c4cn5ncnc5c(C)c4C)c(C(C)C)c3n2)CC1 (stereo not shown) [Example 460]: interval 1
- Cc1c(-c2[nH]c3ccc(N4C[C@H]5C[C@@H]4CN5C4CCS(=O)(=O)CC4)nc3c2C(C)C)cn2ncnc2c1C [Example 770]: interval 3
- Cc1cc(-c2[nH]c3ccc(C4CCN(CC(N)=O)CC4)nc3c2C(C)C)cn2ncnc12 [Example 559]: interval 2
- Cc1c(-c2[nH]c3ccc(N4C[C@H]5C[C@@H]4CN5C(C)C)nc3c2C(C)C)cn2ncnc2c1C [Example 786]: interval 3
- Cc1c(-c2[nH]c3ccc(N4C[C@H]5CCC[C@@H](C4)N5C(=O)CN(C)C)nc3c2C(C)C)cn2ncnc2c1C [Example 750]: interval 1
- Cc1c(-c2[nH]c3ccc(N4C[C@H]5C[C@@H]4CN5CC(N)=O)nc3c2C(C)C)cn2ncnc2c1C [Example 762]: interval 2
- Cc1c(-c2[nH]c3ccc(N4C[C@@H]5C[C@H]4CN5CC(N)=O)nc3c2C(C)C)cn2ncnc2c1C [Example 774]: interval 2
- Cc1c(-c2[nH]c3ccc(N4C[C@H]5C[C@@H]4CN5CCC(=O)N(C)C)nc3c2C(C)C)cn2ncnc2c1C [Example 767]: interval 1
- CC(C)c1c(-c2cn(CCS(C)(=O)=O)c3ncccc23)[nH]c2ccc(C3CCC(NC4CCOCC4)CC3)nc12 (stereo not shown) [Example 271]: interval 3
- Cc1c(-c2[nH]c3ccc(N4C[C@@H]5C[C@H]4CN5Cc4cn(C)nn4)nc3c2C(C)C)cn2ncnc2c1C [Example 787]: interval 2
- Cc1c(-c2[nH]c3ccc(N4C[C@@H]5C[C@H]4CN5C(=O)CCN(C)C)nc3c2C(C)C)cn2ncnc2c1C [Example 785]: interval 3
- Cc1c(-c2[nH]c3ccc(N4C[C@@H]5C[C@H]4CN5C4CCOCC4)nc3c2C(C)C)cn2ncnc2c1C [Example 780]: interval 2
- Cc1c(-c2[nH]c3ccc(N4C[C@@H]5C[C@H]4CN5C4COC4)nc3c2C(C)C)cn2ncnc2c1C [Example 779]: interval 3
- Cc1c(-c2[nH]c3ccc(N4C[C@@H]5C[C@H]4CN5CCC(N)=O)nc3c2C(C)C)cn2ncnc2c1C [Example 775]: interval 2
- COc1cc(-c2[nH]c3ccc(CCC4CN(Cc5c[nH]nn5)C4)nc3c2C(C)C)cn2ncnc12 [Example 688]: interval 3
- CC(C)c1c(-c2cn(CC#N)c3ncccc23)[nH]c2ccc(C3CCC(NC4CCOCC4)CC3)nc12 (stereo not shown) [Example 274]: interval 1
- Cc1c(-c2[nH]c3ccc(N4CCC(N(C)Cc5ncccn5)CC4)nc3c2C(C)C)cn2cnnc2c1C [Example 78]: interval 3
- Cc1c(-c2[nH]c3ccc(N4C[C@@H]5C[C@H]4CN5C4CCS(=O)(=O)CC4)nc3c2C(C)C)cn2ncnc2c1C [Example 781]: interval 3
- Cc1c(-c2[nH]c3ccc(N4C[C@@H]5C[C@H]4CN5CCS(C)(=O)=O)nc3c2C(C)C)cn2ncnc2c1C [Example 777]: interval 2
- Cc1c(-c2[nH]c3ccc(N4C[C@@H]5C[C@H]4CN5C(=O)CN(C)C)nc3c2C(C)C)cn2ncnc2c1C [Example 784]: interval 3
- Cc1c(-c2[nH]c3ccc(N4[C@@H]5CC[C@H]4CN(CCC(N)=O)C5)nc3c2C(C)C)cn2ncnc2c1C [Example 749]: interval 1
- Cc1c(-c2[nH]c3ccc(N4C[C@H]5C[C@@H]4CN5CCC(N)=O)nc3c2C(C)C)cn2ncnc2c1C [Example 763]: interval 1
- Cc1c(-c2[nH]c3ccc(N4C[C@H]5C[C@@H]4CN5C4COC4)nc3c2C(C)C)cn2ncnc2c1C [Example 768]: interval 3
- Cc1c(-c2[nH]c3ccc(N4C[C@H]5C[C@@H]4CN5CCS(C)(=O)=O)nc3c2C(C)C)cn2ncnc2c1C [Example 764]: interval 1
- Cc1c(-c2[nH]c3ccc(N4C[C@@H]5C[C@H]4CN5CCC(=O)N(C)C)nc3c2C(C)C)cn2ncnc2c1C [Example 776]: interval 2
- Cc1c(-c2[nH]c3ccc(N4C[C@@H]5C[C@H]4CN5CCCS(C)(=O)=O)nc3c2C(C)C)cn2ncnc2c1C [Example 778]: interval 1
- Cc1c(-c2[nH]c3ccc(N4C[C@H]5C[C@@H]4CN5C(=O)CCN(C)C)nc3c2C(C)C)cn2ncnc2c1C [Example 773]: interval 2
